experiment: log P by HPLC on reversed-phase columns (C 18), EEC directive 79/831 Annex V.A8; assay type: physicochemical; details: pH 2.7
measured-metric: log P
Write the value as a bare number.

COc1ccc(C2=NOC(=O)C2=Cc2cc(-c3ccccc3)cs2)cc1 :: 4.23
O=C1ON=C(c2ccccc2OCc2ccccc2)C1=Cc1cccs1 :: 3.74
COc1ccc(C2=NOC(=O)C2=Cc2ccc([N+](=O)[O-])s2)cc1 :: 6.31
Cc1c(C=C2C(=O)ON=C2c2ccc(F)cc2)sc2ccccc12 :: 4.18

Entry O=C1ON=C(c2ccc(F)cc2)C1=Cc1ccc(Br)s1 — recorded log P = 3.78

Entry COc1ccc(C2=NOC(=O)C2=Cc2cc(Br)c(Br)s2)cc1 — recorded log P = 4.45

Entry Cc1ccc(C2=NOC(=O)C2=Cc2cccs2)cc1 — recorded log P = 3.32

Entry O=C1ON=C(c2ccc(Cl)cc2)C1=Cc1cc(-c2ccccc2)cs1 — recorded log P = 4.70

Entry Cc1ccc(/C=C2\C(=O)ON=C2c2ccccc2)s1 — recorded log P = 3.35

Entry COc1ccccc1C1=NOC(=O)/C1=C\c1cccs1 — recorded log P = 2.75

###

experiment: log P by HPLC on reversed-phase columns (C 18), EEC directive 79/831 Annex V.A8; assay type: physicochemical; details: pH 2.7
I'd appreciate it if you marked entries met when log P is lower than 4 and not met when it is not.

O=C1ON=C(c2ccc(Cl)cc2)C1=Cc1cc(Br)c(Br)s1 [I-45] :: not met
CC(C)(C)c1ccc(C2=NOC(=O)C2=Cc2ccc(Br)s2)cc1 [I-93] :: not met
CCOc1ccccc1C1=NOC(=O)C1=Cc1cccs1 [I-119] :: met
O=C1ON=C(c2c(F)cccc2F)C1=Cc1cc(Br)cs1 [I-77] :: met

Okay, next one:
Q: Input O=C1ON=C(c2cccc(F)c2)C1=Cc1cccs1 [I-100] ; condition: log P strictly below 4. Does it hold?
Ans: met

###

experiment: log P by HPLC on reversed-phase columns (C 18), EEC directive 79/831 Annex V.A8; assay type: physicochemical; details: pH 2.7
measured-metric: log P
Write the value as a bare number.

Entry Cc1ccsc1C=C1C(=O)ON=C1c1cccc(C(F)(F)F)c1 — recorded log P = 3.82

Entry Cc1ccsc1C=C1C(=O)ON=C1c1cccc(F)c1 — recorded log P = 3.31

Entry Cc1ccc(C=C2C(=O)ON=C2c2ccc(Cl)cc2)s1 — recorded log P = 3.79

###

assay: log P by HPLC on reversed-phase columns (C 18), EEC directive 79/831 Annex V.A8; type: physicochemical; conditions: pH 2.7
Listed molecules paired with reported log P
Write the value as a bare number.

Some solved cases for reference:
COc1cccc(C2=NOC(=O)C2=Cc2cccs2)c1OC :: 2.97
COc1cccc(C2=NOC(=O)C2=Cc2ccc(C)s2)c1 :: 3.34
Cc1ccc(C=C2C(=O)ON=C2c2c(F)cccc2F)s1 :: 3.25
Cc1ccc(C2=NOC(=O)C2=Cc2ccc(Br)s2)cc1 :: 4.12
O=C1ON=C(c2ccc(F)cc2)C1=Cc1sccc1Br :: 3.74

Entry Cc1cccc(C2=NOC(=O)C2=Cc2cccs2)c1 — recorded log P = 3.36

Entry Cc1c(C=C2C(=O)ON=C2c2ccccc2)sc2ccccc12 — recorded log P = 4.13

Entry COc1cccc(C2=NOC(=O)C2=Cc2sccc2C)c1 — recorded log P = 3.24

Entry Cc1ccsc1C=C1C(=O)ON=C1c1ccc(C(C)(C)C)cc1 — recorded log P = 4.58

###

assay: log P by HPLC on reversed-phase columns (C 18), EEC directive 79/831 Annex V.A8; type: physicochemical; details: pH 2.7
Listed compounds paired with reported log P
Write the value as a bare number.

Some solved cases for reference:
COc1ccc(C2=NOC(=O)C2=Cc2cccs2)cc1OC :: 3.01
Cc1ccsc1C=C1C(=O)ON=C1c1ccc(Cl)cc1 :: 3.70
Cc1ccsc1C=C1C(=O)ON=C1c1ccccc1[N+](=O)[O-] :: 2.85

Entry O=C1ON=C(c2ccccc2Cl)C1=Cc1cccs1 — recorded log P = 3.17

Entry CCc1sc(C=C2C(=O)ON=C2c2ccccc2Cl)cc1Br — recorded log P = 3.87

Entry Cc1ccc(C=C2C(=O)ON=C2c2ccccc2)s1 — recorded log P = 3.27

Entry O=C1ON=C(c2ccccc2)C1=Cc1cc(Br)cs1 — recorded log P = 3.71

Entry Cc1ccsc1C=C1C(=O)ON=C1c1ccccc1 — recorded log P = 3.18

Entry Cc1ccsc1C=C1C(=O)ON=C1c1cc(Br)ccc1Cl — recorded log P = 3.97

Entry CC(C)(C)c1ccc(C2=NOC(=O)C2=Cc2cccs2)cc1 — recorded log P = 4.39

Entry Cc1ccc(C2=NOC(=O)C2=Cc2sc3ccccc3c2C)cc1 — recorded log P = 4.51

Entry O=C1ON=C(c2ccc(-c3ccccc3)cc2)C1=Cc1cccs1 — recorded log P = 4.16

Entry COc1ccc(C2=NOC(=O)C2=Cc2cccs2)cc1 — recorded log P = 2.95

###

test: log P by HPLC on reversed-phase columns (C 18), EEC directive 79/831 Annex V.A8; format: physicochemical; settings: pH 2.7
I'd appreciate it if you marked entries T when log P is lower than 4 and F when it is not.

Look over these answered cases.
O=C1ON=C(c2c(F)cccc2F)C1=Cc1cccs1 :: T
COc1ccc(C2=NOC(=O)C2=Cc2sccc2C)cc1 :: T
COc1ccc(C2=NOC(=O)C2=Cc2ccc(C)s2)c(OC)c1 :: T

Q: Input O=C1ON=C(c2ccc([N+](=O)[O-])cc2)/C1=C/c1cccs1 ; condition: log P strictly below 4. Does it hold?
Ans: T

Q: Input O=C1ON=C(c2ccc(C(F)(F)F)cc2)C1=Cc1ccc(Cl)s1 ; condition: log P strictly below 4. Does it hold?
Ans: F

Q: Input O=C1ON=C(c2ccc(Cl)cc2)C1=Cc1ccc([N+](=O)[O-])s1 ; condition: log P strictly below 4. Does it hold?
Ans: T

Q: Input O=C1ON=C(c2ccc(Cl)cc2)C1=Cc1sccc1Br ; condition: log P strictly below 4. Does it hold?
Ans: F

Q: Input Cc1ccc(C2=NOC(=O)C2=Cc2cc(-c3ccccc3)cs2)cc1 ; condition: log P strictly below 4. Does it hold?
Ans: F

Q: Input Cc1cccc(C2=NOC(=O)C2=Cc2ccc(C)s2)c1 ; condition: log P strictly below 4. Does it hold?
Ans: T

###

experiment: log P by HPLC on reversed-phase columns (C 18), EEC directive 79/831 Annex V.A8; assay type: physicochemical; conditions: reversed-phase C18 HPLC column; preparation examples; HPLC, acidic range pH 2.7, formic acid; read-out: log P (HCOOH)
Listed molecules paired with reported chromatographic logP

O=C1ON=C(c2ccc(Cl)cc2Cl)/C1=C/c1cccs1 [I-4] :: 3.72

Entry O=C1CC(c2ccc(Cl)cc2Cl)=NO1 [3-(2,4-dichlorophenyl)isoxazol-5(4H)-one] — recorded chromatographic logP = 2.44

Entry CC(C)(C)c1ccc(C2=NOC(=O)C2)cc1 [3-(4-tert-butylphenyl)isoxazol-5(4H)-one] — recorded chromatographic logP = 3.1

Entry COc1cccc(C2=NOC(=O)/C2=C\c2ccc(Cl)s2)c1 [I-37] — recorded chromatographic logP = 3.74

Entry Cc1ccc(/C=C2\C(=O)ON=C2c2ccc(C(C)(C)C)cc2)s1 [I-27] — recorded chromatographic logP = 4.7

Entry COc1cccc(C2=NOC(=O)C2)c1 [3-(3-methoxyphenyl)isoxazol-5(4H)-one] — recorded chromatographic logP = 4.03

###

assay: log P by HPLC on reversed-phase columns (C 18), EEC directive 79/831 Annex V.A8; type: physicochemical; conditions: pH 2.7
# binning rule on log P: class 0 = under 3, class 1 = from 3 up to 4, class 2 = 4 and over

Look over these answered cases.
CC(C)Oc1ccc(C2=NOC(=O)C2=Cc2cccs2)cc1 :: class 1
Cc1ccsc1C=C1C(=O)ON=C1c1ccc([N+](=O)[O-])cc1 :: class 1
COc1cccc(C2=NOC(=O)C2=Cc2ccc([N+](=O)[O-])s2)c1 :: class 1
Cc1ccsc1C=C1C(=O)ON=C1c1ccccc1Cl :: class 1

Q: Which category fits this record: COc1ccc(C2=NOC(=O)C2=Cc2cccs2)c(OC)c1
Ans: class 0

Q: Which category fits this record: O=C1ON=C(c2ccc(Cl)cc2)C1=Cc1cc(Br)cs1
Ans: class 2

Q: Which category fits this record: COc1cccc(C2=NOC(=O)C2=Cc2cc(Br)cs2)c1
Ans: class 1

Q: Which category fits this record: COc1cccc(C2=NOC(=O)C2=Cc2cccs2)c1
Ans: class 0

Q: Which category fits this record: O=C1ON=C(c2ccc(F)cc2)C1=Cc1cc(-c2ccccc2)cs1
Ans: class 2

###

test: log P by HPLC on reversed-phase columns (C 18), EEC directive 79/831 Annex V.A8; format: physicochemical; conditions: pH 2.7
measured-metric: log P
Write the value as a bare number.

O=C1ON=C(c2ccccc2I)C1=Cc1cccs1 [I-108] :: 3.36
Cc1ccc(C)c(C2=NOC(=O)C2=Cc2sccc2C)c1 [I-124] :: 3.81

Entry Cc1cc(C)cc(C2=NOC(=O)C2=Cc2ccc(C)s2)c1 [I-87] — recorded log P = 4.08
